Overview of recorded Enzyme Activity Endpoint Assay (purified): IgG for various proteins
- test target: pooled human IgG
Unit ng/µL implied. Number only.

Reference set, count: 3
protein	readout number
PRT-550 (protein) MANQEIRYSEETPKTITSIWTKGVTPPTDFIKNEDVLHAPYIANQGWYDITKTFNGKDDLLCGAATAGNMLHWWFDQNKEEIENYLKKHPEKQKINFNGEQMFDVKEAIDTKDSQTDSKLFEYFKDKAFPYLSTKHLGVFPDHVIDMFINGYRLSLTNHGPTPVKRGTKDPRGGIFDAVFTRGDQSKLLTARHDFKEKTLNEISDLIKQELTEGKALGLSHTYANVRINHVINLWGADFNSEGNLEAIYVTDSDSNASIGMKKYYVGVNAAGKVAISAKEIEGDNIGAQVLGLFTLSTGQDIWNQTNLEHHHHHH	0
PRT-145 (protein) MANQEIRYSEVTPYHITSVWTKGVTPPANFTQGEDVFHAPYVANQGWYDITKTFNGKDDLLCGAATAGNMLHWWFDQNKDQIKRYLEEHPEKQKINFNGEQMFDVKEAIDTKNHQLDSKLFEYFKEKAFPYLSTKHLGVFPDHVIDMFINGYRLSLTNHGPTPVKEGSKDPRGGIFDAVFTRGDQSKLLTSRHDFKEKTLNTISQLIKQELQSGKALGLSHTYANVRINHVINLWGADFDAEGNLEAIYVTDSDSNASIGMKKYFVGKNSAGKVAISAKEIKEDNIGAQVLGLFTLSTGQDSWNQTN	0
PRT-156 (protein) MANQEIRYSEVTPYHVTSVWTKGVTPPTDFTQGEDVFHAPYKANQGWYDITKTFNGKDDLLCGAATAGNMLHWWFDQNKDQIKRYLEEHPEKQKINFNGEQMFDVKEAIDTKNHQLDSKLFEYFKEKAFPYLSTKHLGVFPDHVIDMFINGYRLSLTNHGPTPVKEGSKDPRGGIFDAVFTRGDQSKLLTSRHDFKEKNLKEISDLIKKELTEGKALGLSHTYANVRINHVINLWGADFDSNGNLKAIYVTDSDSNASIGMKKYFVGVNSAGKVAISAKEIKEDNIGAQVLGLFTLSTGQDSWNQTN	0

Read the next record carefully.
Query string: Can you look up the measured Enzyme Activity Endpoint Assay (purified): IgG of PRT-234 (protein) MEVVEVWPYGQNPNGKTEILSQTEDSESLQRLRDIEDFQAEKKMQNVVYTKWLDGVDVKDHDFRKIVDGNIAYYATPLLNGRGFYDINKDFNRDSDKCAAAVAANMFHYWLDINRDNVDRFLRQNPEKHGIIELPDGQLKLSDFLNTYESDDGYRDKSKLFDFISNNFNGPVWTDKLLDNYINGYAYNYKYGRTIEDPTKNTSKINFFKEVFNEKILTNNHSIRNQNEFSVLLSEALYTGKAIGLSYGPAGLRHSLGHIISVWGADLDADGNVVAIYVTDSDDKKLTIGDERVGLKRYKISTDDENRLRLTAYEETHNTGGQIRGLWTLDTGKYAWADYFDKTEQTGTDQAEQLEHHHHHH for me?
Result string: 640

Reference for the values: patent US20250027068
